tested on: beta-conglutin (Lup an 1) (lupin); assay: competition; settings: 10 mM phosphate, 138 mM NaCl, 2.7 mM KCl, 1.5 mM MgCl2, pH 7.4; ELONA at 21 C, SPR temperature not stated (Biacore 3000, CM5)
Result type: pIC50
Scale for pIC50: -log10 of concentration given in mol/L; no unit attached.

So what's the measured pIC50 for this one? AGCTGACACAGCAGGTTGGTGGGGGTGGCTTCCAGTTGGGTTGACAATACGTAGGGACACGAAGTCCAACCACGAGTCGAGCAATCTCGAAAT [Sequence 40 (S40)]
6.41

----------
Parameter pKd: see the listing below.
test system: beta-conglutin (Lup an 1) (lupin); assay: SPR; conditions: 10 mM phosphate, 138 mM NaCl, 2.7 mM KCl, 1.5 mM MgCl2, pH 7.4; ELONA at 21 C, SPR temperature not stated (Biacore 3000, CM5)
Scale for pKd: -log10 of concentration given in mol/L; no unit attached.

AGCTGACACAGCAGGTTGGTGGGGGTGGCTCACATCATGGTAGAATGACTGAACAGCGTTGATTAAAAGGCACGAGTCGAGCAATCTCGAAAT [Sequence 2 (S2)]	6.29

Would you kindly look at the next entry?
So what's the measured pKd for this one? AGCTGACACAGCAGGTTGGTGGGGGTGGCTTCCAGTTGGGTTGACAATACGTAGGGACACGAAGTCCAACCACGAGTCGAGCAATCTCGAAAT [Sequence 40 (S40)]
6.44
